Reference source: patent US20080145465A1

- Test system: nitric oxide (NO) production from RAW macrophages
- protocol: Griess assay for NO production by LPS-stimulated RAW macrophages
- Format: cell-based, murine
- study_conditions: RAW macrophages elicited with LPS; molar value in brackets; read-out: IC50, inhibition of NO production
property_measured: IC50 (µM)

{"columns": ["query_smiles", "property_measured", "unit_annotation", "observed_result"],
 "data": [
  ["CC1=CC(=O)C2=C(C)CC[C@@H]3[C@H](OC(=O)[C@H]3C)[C@@H]12", "IC50", "µM", 650]
]}
